# Tested Target: Streptokinase A (Streptococcus pyogenes serotype M1)
# Sequence (P10520 whole entry): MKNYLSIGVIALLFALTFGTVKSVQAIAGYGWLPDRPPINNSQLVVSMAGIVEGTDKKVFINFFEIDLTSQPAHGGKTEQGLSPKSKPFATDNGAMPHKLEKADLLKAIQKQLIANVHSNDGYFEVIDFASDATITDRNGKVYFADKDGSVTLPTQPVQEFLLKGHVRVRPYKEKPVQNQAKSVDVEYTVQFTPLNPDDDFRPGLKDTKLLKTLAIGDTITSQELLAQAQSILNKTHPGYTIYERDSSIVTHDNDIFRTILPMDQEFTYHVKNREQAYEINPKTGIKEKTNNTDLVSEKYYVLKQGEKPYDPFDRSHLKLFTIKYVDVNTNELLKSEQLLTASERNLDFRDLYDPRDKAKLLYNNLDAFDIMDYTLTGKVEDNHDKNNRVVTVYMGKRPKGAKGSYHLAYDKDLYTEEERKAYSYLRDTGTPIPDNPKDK
# Assay Method Text: S. pyogenes streptokinase expression inhibitors, potency, dose response, plasminogen activation absorbance, OD405 (AID 1914);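 further: secreted streptokinase activity via plasminogen activation per viability signal from cell pellet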
# Type: functional, Streptococcus pyogenes M1 GAS
Active and inactive are the calls of the source. No stated cut-off is given here; in the data, actives have a measured EC50 and inactives only a lower limit.
Endpoint: EC50

Data request: GET /values?readout=EC50&system=Streptokinase A (Streptococcus pyogenes serotype M1)&item= CC(C)(C)C1CC=C2C(C#N)=C(N)C(C#N)(C#N)C(c3cccs3)C2C1 (stereo not drawn)
Data returned: 25.7 µM (active)

Data request: What do we get for Clc1ccc(C2=CSC3=Nc4cccc5cccc(c45)N23)cc1 ?
Data returned: > 150 µM (not active)

Data request: What do we get for O=C(N/N=C/c1ccc(-c2ccc(Cl)c(C(=O)O)c2)o1)c1cc2c(ccc3ccccc32)o1 ?
Data returned: > 150 µM (not active)
